Attribution: ChEMBL document CHEMBL5724709

Recorded Growth Rate for the following compounds
System: HEK-293T
ASSAY TEXT: Incucyte cell viability with HEK293T; further: unitless GR value; below 1 slowed growth and below 0 cell loss
Assay type: toxicity, cell-based
PARTICULARS: human, 24 h, 10 µM, compound concentration 10 uM, replicate number 1
Peptide text beside a SMILES is read from it.
Keep the answer to the number alone.

1. O=C(c1ccc2[nH]ccc2c1)N1CCN(S(=O)(=O)c2ccc3[nH]c(=O)oc3c2)CC1 : 0.91
2. CNc1ncc2cc(-c3cc(NC(=O)NCCC(C)(C)C)c(F)cc3C)c(C)nc2n1 : 0.3
3. COc1cc2c(Nc3ccc(Br)cc3F)ncnc2cc1OCC1CCN(C)CC1 : -0.15
4. CC(=O)N[C@@H](CC(C)C)C(=O)N[C@@H](CCC(=O)O)C(=O)N[C@H](C(=O)N[C@H](C=O)CC(=O)O)C(C)C (Ac-LEVD-aldehyde) : 0.89
5. CN1CCc2c(n(Cc3ccc(C(=O)NO)cc3)c3ccccc23)C1 : 0.89

Attention now shifts to the item below.
[ask] Return reported Growth Rate; argument: CC(C)n1nc(-c2cc3cc(O)ccc3[nH]2)c2c(N)ncnc21
[reply] -0.17

====

Recorded Growth Rate for the following compounds
Tested on: U2OS
ASSAY TEXT: Incucyte cell viability with U2OS; further: unitless GR value; below 1 slowed growth and below 0 cell loss
Assay type: toxicity, cell-based
PARTICULARS: human, 24 h, 10 µM, compound concentration 10 uM, replicate number 2
Keep the answer to the number alone.

1. CCC[C@@H]1CNCc2c1[nH]c(=O)c(C#N)c2N1CCC2(CC1)CC2.Cl : 0.8
2. Cc1cc(C)c(CNC(=O)c2cc(-c3ccc(N4CCN(C)CC4)nc3)cc3c2c(C)cn3C(C)C)c(=O)[nH]1 : 0.86
3. N#C[C@@H]1CCCN1C(=O)[C@@H]1CCCN1C(=O)CCCc1ccccc1 : 0.94
4. Cc1cc(C(=O)N2CCN(C3CN(C(=O)c4ccc(-c5ccccc5)cc4)C3)CC2)no1 : 1
5. CC(C)c1cc(C(=O)N2Cc3ccc(CN4CCN(C)CC4)cc3C2)c(O)cc1O : 0.05
6. CCCOc1cc(OCCCCN(C)C)cc(Oc2cc3c(cc2NS(=O)(=O)c2ccc(OC)c(OC)c2)n(C)c(=O)n3C)c1.O=C(O)C(F)(F)F : 1
7. CNC(=O)c1cnc(N2CCC[C@H](N)C2)nc1Nc1cc(C(C)C)nc(C(C)C)c1 : 0.05
8. Cc1cc(-c2ccccc2)cc(C(=O)NNS(=O)(=O)c2ccccc2)c1F : 0.89

Attention now shifts to the item below.
[ask] Lookup: Growth Rate / U2OS / Cc1cc(Cn2c(=O)n(Cc3cnc(C)s3)c(=O)c3cc(S(=O)(=O)NC4(C)CC4)ccc32)n(C)n1
[reply] 0.54

====

System: HEK-293T
ASSAY TEXT: Incucyte cell viability with HEK293T; further: unitless GR value; below 1 slowed growth and below 0 cell loss
Assay type: toxicity, cell-based
PARTICULARS: human, 24 h, 10 µM, compound concentration 10 uM, replicate number 2
QUANTITY NAME: Growth Rate
Keep the answer to the number alone.

Solved cases below.
1) C[C@@H]1CN(c2nccc(Nc3ccc4c(c3)n(CCC(C)(C)O)c(=O)n4C)n2)C[C@H](C)C1(F)F : 0.19
2) O=C(NCCCn1ccnc1)c1cc2nc(-c3ccccc3)cc(-c3ccccc3)n2n1 : 0.98
3) CC(C)N(CCCNC(=O)Nc1ccc(C(C)(C)C)cc1)C[C@H]1O[C@@H](n2ccc3c(N)ncnc32)[C@H](O)[C@@H]1O : 0.84
4) Nc1ccc(-c2cccs2)cc1NC(=O)c1ccc2nc(N3CCNCC3)ccc2c1 : 0.99
5) CSc1cccc(Nc2ncc3cc(-c4c(Cl)cccc4Cl)c(=O)n(C)c3n2)c1 : 0.24
6) CCC(NC(=O)C(CC(C)C)NC(=O)OCc1ccccc1)C(=O)C(=O)NCCCN1CCOCC1.O=C(O)C(F)(F)F (stereo not drawn) : 0.97

[ask] Return reported Growth Rate; argument: NC(=O)c1cccc(NC(=O)CCC(=O)NCCc2cn(CCNS(=O)(=O)c3cccc(C(=O)O)c3)nn2)c1
[reply] 0.77

[ask] Return reported Growth Rate; argument: Cl.Cl.Nc1ncnc2c1ncn2[C@@H]1O[C@H](C(=O)N2CCN(CC(=O)Nc3cccc4c3CNC4=O)CC2)[C@@H](O)[C@H]1O
[reply] 1
